Target: Adenosine receptor A2a (Homo sapiens) (UniProt P29274)
Sequence (P29274 whole entry): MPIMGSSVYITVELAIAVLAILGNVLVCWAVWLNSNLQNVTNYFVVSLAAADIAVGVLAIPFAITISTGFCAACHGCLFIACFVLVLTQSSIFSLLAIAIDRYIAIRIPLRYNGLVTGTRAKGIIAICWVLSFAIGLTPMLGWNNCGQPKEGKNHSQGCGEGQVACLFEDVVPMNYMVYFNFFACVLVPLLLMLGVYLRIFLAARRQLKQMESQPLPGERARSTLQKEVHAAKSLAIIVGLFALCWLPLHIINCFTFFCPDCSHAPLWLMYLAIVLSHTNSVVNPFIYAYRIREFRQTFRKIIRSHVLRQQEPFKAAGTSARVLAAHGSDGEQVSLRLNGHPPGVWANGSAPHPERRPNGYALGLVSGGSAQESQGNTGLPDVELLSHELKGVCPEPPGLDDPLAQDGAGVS
Assay: Displacement of [3H]ZM2421385 from adenosine A2A receptor expressed in human HeLa cell membranes at 1 uM incubated for 30 mins by scintillation counting method
Details: Cell membrane
We begin with a simple list: items and their reported inhibition.
Report only the number, with the unit % understood.

Reference set (5 entries):
* CC1=C(C(N)=O)C(c2ccsc2)NC(=O)N1 (racemic) | 18
* COC(=O)C1=C(C)N(C)C(=O)NC1c1ccco1 (racemic) | 1
* CCOC(=O)C1=C(C)N(C)C(=O)NC1c1ccsc1 (racemic) | 23
* CCCOC(=O)C1=C(C)NC(=O)NC1c1ccoc1 (racemic) | 45
* CC1=C(c2ncc(C)o2)C(c2ccsc2)NC(=O)N1 (racemic) | 20

Quickly give me recorded inhibition for CCC(CC)OC(=O)C1=C(C)NC(=O)NC1c1ccsc1 (racemic) 1

* * *

Molecular target: Adenosine receptor A3 (Homo sapiens) (UniProt P0DMS8)
Sequence (whole entry): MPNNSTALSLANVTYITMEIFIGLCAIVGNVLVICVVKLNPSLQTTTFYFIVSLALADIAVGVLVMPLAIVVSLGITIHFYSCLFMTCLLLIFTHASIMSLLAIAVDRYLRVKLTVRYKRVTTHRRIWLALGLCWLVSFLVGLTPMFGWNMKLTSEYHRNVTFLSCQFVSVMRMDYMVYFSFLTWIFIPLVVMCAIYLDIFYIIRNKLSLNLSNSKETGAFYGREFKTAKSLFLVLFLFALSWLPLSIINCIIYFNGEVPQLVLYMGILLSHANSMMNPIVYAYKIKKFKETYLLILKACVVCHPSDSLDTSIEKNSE
Assay: Displacement of [3H]NECA from adenosine A3 receptor expressed in human HeLa cell membranes at 1 uM incubated for 180 mins by scintillation counting method
Settings: Cell membrane
Reported endpoint: inhibition (%)
Please state the figure in %; there is no need to write the unit.

Worked set:
- CCOP(=O)(OCC)C1=C(C)NC(=O)NC1c1ccco1 (racemic): 4
- CCOP(=O)(OCC)C1=C(C)NC(=O)NC1c1ccoc1 (racemic): 2
- CC1=C(C(=O)OCC(C)C)C(c2cccs2)NC(=O)N1C (racemic): 5

Please report the measured inhibition for CCC(C)OC(=O)C1=C(C)NC(=O)NC1c1ccsc1 (racemic) 7

Give the reported inhibition for this compound. CC1=C(C(=O)OC(C)C)C(c2ccco2)NC(=S)N1 (racemic) 1

* * *

Biological target: Adenosine receptor A1 (Homo sapiens) (UniProt P30542)
Sequence (P30542 whole entry): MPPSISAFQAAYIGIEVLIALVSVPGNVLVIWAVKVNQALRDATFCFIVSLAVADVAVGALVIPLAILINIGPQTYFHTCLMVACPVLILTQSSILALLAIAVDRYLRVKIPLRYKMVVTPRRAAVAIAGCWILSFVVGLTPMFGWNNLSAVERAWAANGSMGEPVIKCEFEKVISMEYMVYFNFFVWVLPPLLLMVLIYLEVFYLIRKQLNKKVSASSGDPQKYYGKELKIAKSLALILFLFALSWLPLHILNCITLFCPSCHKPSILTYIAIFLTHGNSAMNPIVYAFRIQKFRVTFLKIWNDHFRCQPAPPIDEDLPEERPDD
Assay: Displacement of [3H]DPCPX from human adenosine A1 receptor expressed in CHO cell membranes at 1 uM incubated for 60 mins by scintillation counting method
Settings: Cell membrane
Reported endpoint: inhibition (%)
Kindly answer with a numeric value in %, unit omitted.

Annotate the compound CC1=C(C(=O)OCC(C)C)C(c2ccco2)NC(=S)N1 (racemic) with its measured inhibition. 7

Output inhibition of CCNC(=O)C1=C(C)NC(=O)NC1c1ccco1 (racemic) 2

Give the reported value of inhibition for this record: CCSC(=O)C1=C(C)NC(=O)NC1c1ccco1 (racemic) 6

Check the records and state inhibition for CC1=C(C(N)=O)C(c2ccsc2)NC(=O)N1 (racemic) 2

Please supply the value of reported inhibition for the item CC1=C(C(N)=O)C(c2ccoc2)NC(=O)N1 (racemic) 1

Tell me its inhibition given CCCOC(=O)C1=C(C)NC(=O)NC1c1ccsc1 (racemic) as the entry. 44

Determine from records and report inhibition for CC1=C(C(=O)OCC(C)C)C(c2cccs2)NC(=O)N1C (racemic) 9

State its inhibition for this compound: CCCC(=O)C1=C(C)NC(=O)NC1c1ccco1 (racemic) 1

Hello, please tell me recorded inhibition for this one: CC1=C(C(=O)OCc2ccccc2)C(c2ccoc2)NC(=S)N1 (racemic) 25

Look up and report measured inhibition for this entry: CCC(CC)OC(=O)C1=C(C)NC(=O)NC1c1cccs1 (racemic) 13

Dear colleague, please send me the reported inhibition for CC1=C(C(=O)OC(C)C)C(c2ccsc2)NC(=O)N1C (racemic) when you can. 35

Identify measured inhibition associated with COC(=O)C1=C(C)NC(=S)NC1c1ccoc1 (racemic) 25

Entry CCNC(=O)C1=C(C)NC(=O)NC1c1ccoc1 (racemic) needs its inhibition filled in; supply it. 1

Provide inhibition value for the following compound: CC1=C(C(=O)OCC2CCC2)C(c2cccs2)NC(=O)N1 (racemic) 39

Give the reported inhibition for this compound. CC1=C(C(=O)OCC(C)C)C(c2ccoc2)NC(=S)N1 (racemic) 12

Report measured inhibition; entry is CCSC(=O)C1=C(C)NC(=O)NC1c1cccs1 (racemic) 6

# return recorded inhibition for entry CCCOC(=O)C1=C(C)NC(=S)NC1c1ccoc1 (racemic) 4

Dear colleague, please send me the reported inhibition for CC1=C(C(=O)OC2CCCC2)C(c2ccsc2)NC(=O)N1 (racemic) when you can. 5

Give me measured inhibition, please, for this compound: CCCOC(=O)C1=C(C)N(C)C(=O)NC1c1ccco1 (racemic) 3

Give inhibition for COC(=O)C1=C(C)N(C)C(=O)NC1c1ccco1 (racemic) 45

Determine its reported inhibition: CC1=C(C(=O)OC2CCC2)C(c2ccsc2)NC(=O)N1 (racemic) 40

Indicate the recorded inhibition value for this compound: CCC(C)OC(=O)C1=C(C)NC(=O)NC1c1ccco1 (racemic) 6
